Below, each entry is listed alongside its reported MIC.
system: S. aureus; format: cell-based, Staphylococcus aureus
Ends that are not written are not given here.
assay_readout: MIC (µg/mL)

ordered_residues: FIHHIIGGLFSAGKAAHRLIRRRRR [I16A]
assay_readout: MIC
bound_type: =
value_observed: 64
--
ordered_residues: FIHHIIGGLFSAGKAEHRLIRRRRR [I16E]
assay_readout: MIC
bound_type: >
value_observed: 512
--
ordered_residues: AAHHIIGGLFSAGKAIHRLIRRRRR [F1A/I2A]
assay_readout: MIC
bound_type: =
value_observed: 128
--
ordered_residues: FIHHIIGGLFSVGKHIHSLIHRRRR [VHSH]
assay_readout: MIC
bound_type: =
value_observed: 16
--
ordered_residues: FIHHIIGGLFSAGKARHRLIRRRRR [I16R]
assay_readout: MIC
bound_type: >
value_observed: 512
